- target_under_test: FAAH (Homo sapiens)
- Sequence (O00519 1-579): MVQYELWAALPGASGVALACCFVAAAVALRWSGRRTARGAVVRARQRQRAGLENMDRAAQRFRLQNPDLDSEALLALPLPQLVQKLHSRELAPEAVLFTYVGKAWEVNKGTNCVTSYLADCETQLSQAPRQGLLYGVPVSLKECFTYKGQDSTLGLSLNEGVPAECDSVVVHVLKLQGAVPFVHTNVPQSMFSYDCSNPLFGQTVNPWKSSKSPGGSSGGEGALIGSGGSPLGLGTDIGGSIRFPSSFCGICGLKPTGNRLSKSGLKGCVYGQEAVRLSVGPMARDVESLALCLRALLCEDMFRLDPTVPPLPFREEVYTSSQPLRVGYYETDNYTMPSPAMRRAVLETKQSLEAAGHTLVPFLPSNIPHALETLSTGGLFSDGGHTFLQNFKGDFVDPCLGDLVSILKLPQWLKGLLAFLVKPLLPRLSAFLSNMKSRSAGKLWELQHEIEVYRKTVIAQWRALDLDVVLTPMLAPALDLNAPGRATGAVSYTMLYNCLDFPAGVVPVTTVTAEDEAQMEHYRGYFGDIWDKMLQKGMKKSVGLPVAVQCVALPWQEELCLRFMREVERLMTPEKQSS
- method_notes: Assay Method 1: FAAH assay, 3H-anandamide hydrolysis in homogenate of T84 cells or SK-N-MC cells transfected with human FAAH
- test_settings: average of results, > = solubility limit or highest concentration tested
Structures can show the parent of a compound that is named as a salt.
What pIC50 was measured for each of the following?
// field semantics: pIC50 = negative decimal log of concentration (mol/L)

Hello, please tell me recorded pIC50 for this one: CCn1nccc1NC(=O)N1CCN(Cc2cccc(Oc3ccc(Cl)cc3)c2)CC1 [Example 193, trifluoroacetic acid salt] 6.49

Return pIC50 (reported value) for this molecule: N#Cc1ccc(Oc2cccc(CN3CCN(C(=O)Nc4cnccn4)CC3)c2)cc1 6.70

Assign pIC50 to the following record: O=C(Nc1noc2ccccc12)N1CCN(Cc2cccc(Oc3ccc(F)c(C(F)(F)F)c3)c2)CC1 [Example 28, trifluoroacetic acid salt] 7.02

Note down pIC50 recorded for O=C(Nc1ccon1)N1CCN(Cc2cccc(Oc3ccc(F)c(F)c3)c2)CC1 6.34

State its pIC50 for this molecule: O=C(Nc1noc2ccccc12)N1CCN(Cc2cccc(Oc3cc(F)cc(F)c3)c2)CC1 [Example 34, trifluoroacetic acid salt] 6.82

Give reported pIC50 value for O=C(Nc1ccon1)N1CCN(Cc2ccc(OCc3ccccc3)cc2)CC1 6.08

Determine from records and report pIC50 for O=C(Nc1noc2ccccc12)N1CCC(Cc2cccc(C(F)(F)F)c2)CC1 7.11

Look up pIC50 of O=C(Nc1noc2ccccc12)N1CCN(Cc2cccc(C#Cc3cc(Cl)cc(Cl)c3)c2)CC1 and report it. 7.46

Specify measured pIC50 for O=C(Nc1noc2ccccc12)N1CCC(Cc2ccc3c(c2)OC(F)(F)O3)CC1 . 7.39

Please indicate pIC50 recorded for O=C(Nc1cnccn1)N1CCN(Cc2ccc3c(c2)OC(F)(F)O3)CC1 5.76

Indicate its recorded pIC50; the molecule in question is O=C(Nc1nnn[nH]1)N1CCN(Cc2cccc(Oc3ccc(C(F)(F)F)cc3)c2)CC1 6.70

Look up and state reported pIC50 for O=C(Nc1noc2ccccc12)N1CCN(Cc2ccc(OCc3ccccc3)cc2)CC1 7.40

Quote pIC50 reported for Cc1ccccc1CCc1cccc(CN2CCN(C(=O)Nc3noc4ccccc34)CC2)c1 [Example 94, hydrochloride salt] please. 6.42

Give me measured pIC50, please, for this molecule: O=C(Nc1noc2ccccc12)N1CCN(Cc2cccc(Oc3ccc(S(=O)(=O)C(F)(F)F)cc3)c2)CC1 7.64

Dear colleague, please send me the reported pIC50 for O=C(Nc1cnccn1)N1CCN(Cc2cccc(Oc3ccccc3)c2)CC1 when you can. 6.40

# return recorded pIC50 for entry O=C(Nc1cnccn1)N1CCN(Cc2cccc(Oc3ccccc3Cl)c2)CC1 6.70

Give a short answer stating reported pIC50 for O=C(Nc1ccon1)N1CCN(Cc2cccc(Oc3ccc4ncccc4c3)c2)CC1 . 6.62

Respond only with pIC50 recorded for O=C(Nc1noc2ccccc12)N1CCN(Cc2cccc(Oc3ccccc3)c2)CC1 7.35

Identify measured pIC50 corresponding to O=C(Nc1nccnc1Cl)N1CCN(Cc2cccc(Oc3ccc(Cl)cc3)c2)CC1 8.70

# return recorded pIC50 for entry O=C(Nc1noc2ccccc12)N1CCN(Cc2cccc(Oc3cccc(Cl)c3)c2)CC1 7.40

State its pIC50 for this molecule: N#Cc1ccc(Oc2cccc(CN3CCN(C(=O)Nc4nn[nH]n4)CC3)c2)cc1C(F)(F)F 5.92

Give the measured pIC50 for O=C(Nc1ccc(Cl)nn1)N1CCN(Cc2cccc(Oc3ccc(Cl)c(Cl)c3)c2)CC1 [Example 43, trifluoroacetic acid salt] 6.01

Give the reported pIC50 for this molecule. O=C(Nc1noc2ccccc12)N1CCN(Cc2ccc3ccccc3n2)CC1 7.26

Fill in reported pIC50 for this entry: O=C(Nc1noc2ccccc12)N1CCN(Cc2ccc(OC(F)(F)F)cc2)CC1 6.92

Hello, please tell me recorded pIC50 for this one: O=C(Nc1noc2ccccc12)N1CCN(Cc2cccc(Oc3ccc4c(c3)OC(F)(F)O4)c2)CC1 8.15

Entry O=C(Nc1nn[nH]n1)N1CCN(Cc2ccc(Cl)c(Cl)c2)CC1 needs its pIC50 filled in; supply it. 5.77

Tell me its pIC50 given O=C(Nc1ccc2ncsc2c1)N1CCC(Cc2ccc3ccccc3c2)CC1 as the entry. 5.82

Determine its reported pIC50: O=C(Nc1noc2ccccc12)N1CCN(Cc2cccc(Oc3ccc(Br)cc3)c2)CC1 [Example 32, trifluoroacetic acid salt] 8.52

Answer with reported pIC50 of O=C(Nc1ccon1)N1CCN(Cc2cccc(Oc3ccc(Cl)c(Cl)c3)c2)CC1 [Example 47, trifluoroacetic acid salt] 5.94

Given the molecule O=C(Nc1noc2ccccc12)N1CCN(Cc2cccc(Oc3ccccn3)c2)CC1 , write its reported pIC50. 6.70

Given the molecule O=C(Nc1noc2ccccc12)N1CCN(Cc2cccc(C#Cc3cccc4ccccc34)c2)CC1 , write its reported pIC50. 5.52

====

Give measured IC50 for each item. Keep answers brief.
- target_under_test: UniProt P97612
- Sequence (P97612 1-579): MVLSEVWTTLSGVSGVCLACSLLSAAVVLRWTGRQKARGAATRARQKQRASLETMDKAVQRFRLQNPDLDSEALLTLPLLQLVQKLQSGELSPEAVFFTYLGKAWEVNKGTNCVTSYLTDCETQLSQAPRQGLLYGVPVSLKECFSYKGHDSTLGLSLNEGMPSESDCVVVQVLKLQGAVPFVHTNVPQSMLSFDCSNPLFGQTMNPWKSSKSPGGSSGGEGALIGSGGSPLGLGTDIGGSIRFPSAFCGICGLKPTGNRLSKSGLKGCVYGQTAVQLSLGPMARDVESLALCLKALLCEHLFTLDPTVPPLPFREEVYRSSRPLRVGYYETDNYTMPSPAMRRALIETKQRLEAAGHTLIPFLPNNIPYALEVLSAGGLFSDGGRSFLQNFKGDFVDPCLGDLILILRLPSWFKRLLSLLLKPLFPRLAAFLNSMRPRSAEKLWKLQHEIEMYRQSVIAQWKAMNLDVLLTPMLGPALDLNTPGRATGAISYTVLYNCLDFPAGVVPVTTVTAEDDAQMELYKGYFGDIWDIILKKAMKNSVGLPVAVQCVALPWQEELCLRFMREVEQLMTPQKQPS
- method_notes: Assay Method 2: FAAH assay, 3H-anandamide hydrolysis in homogenate of SK-N-MC cells transfected with rat FAAH
- test_settings: average of results, > = solubility limit or highest concentration tested
Counter-ions that a name gives are not always drawn.
The figure you give is taken to be in nM; do not add the unit.

For the compound O=C(Nc1ccon1)N1CCN(Cc2ccc(Cl)c(Cl)c2)CC1 , give its reported IC50. 8000

For the compound Cc1cc(NC(=O)N2CCN(Cc3cccc(Oc4ccc(Cl)cc4)c3)CC2)no1 , give its reported IC50. 7000

Indicate the recorded IC50 value for this compound: O=C(Nc1noc2ccccc12)N1CCN(Cc2cccc(Oc3ccc(OC(F)(F)F)cc3)c2)CC1 [Example 30, trifluoroacetic acid salt] 14

Please report IC50 for the following compound: O=C(Nc1noc2ccccc12)N1CCN(Cc2ccc(Br)c(Br)c2)CC1 25

Output IC50 of O=C(Nc1noc2ccccc12)N1CCN(Cc2cccc(Oc3cccc(OC(F)(F)F)c3)c2)CC1 [Example 29, trifluoroacetic acid salt] 23

Input O=C(Nc1nnn[nH]1)N1CCC(Cc2ccc3ccccc3c2)CC1 , output reported IC50. 87

Using the record for O=C(Nc1nnn[nH]1)N1CCN(Cc2cccc(Oc3ccc(Cl)cc3)c2)CC1 [Example 57, trifluoroacetic acid salt] , state its measured IC50. 167

Report IC50, nothing else, for this compound: O=C(Nc1noc2ccccc12)N1CCN(Cc2cccc(C#Cc3ccc(Cl)cc3)c2)CC1 325

In one line, give reported IC50 of the entry O=C(Nc1nn[nH]n1)N1CCN(Cc2ccc(Br)c(Br)c2)CC1 . 80

Read the entry C#Cc1cccc(CN2CCN(C(=O)Nc3noc4ccccc34)CC2)c1 and write its reported IC50. 315

State its IC50 for this compound: O=C(Nc1noc2ccccc12)N1CCN(Cc2cccc(Oc3ccccc3Cl)c2)CC1 115

State, in one line, measured IC50 of O=C(Nc1cccnn1)N1CCN(Cc2ccc3ccccc3c2)CC1 500

// Input: O=C(Nc1cc[nH]n1)N1CCN(Cc2cccc(Oc3ccc(Cl)c(Cl)c3)c2)CC1 [Example 54, trifluoroacetic acid salt] . Output its IC50 only. 50

Name the recorded IC50 of the compound listed here: O=C(Nc1cccc2nonc12)N1CCN(Cc2ccc3c(c2)OC(F)(F)O3)CC1 [Example 5, trifluoroacetic acid salt] 1200

Give the value of IC50 reported for the following: O=C(Nc1ccc2nn[nH]c2c1)N1CCN(Cc2ccc3c(c2)OC(F)(F)O3)CC1 [Example 6, trifluoroacetic acid salt] 352
